- Tested on: RXF 393 renal
- testMethodNotes: NCI tumour cell line growth inhibition, 48 h
Each entry below carries its recorded TGI.

- molecule: "NC(N)=Nc1ccc(CC(N)C(=O)O)cc1 (stereo not given)"
  TGI: "> 12.5 µM"
- molecule: "CC(=O)O[C@H]1C(=O)[C@@]2(C)C(C(OC(=O)c3ccccc3)C3[C@@H](O)C(OC(=O)[C@@H](O)[C@H](NC(=O)c4ccccc4)c4ccc(C(F)(F)F)cc4)C(C)=C1C3(C)C)[C@]1(OC(C)=O)CO[C@@H]1C[C@@H]2O (stereo not given in full)"
  TGI: "> 25 µM"
- molecule: "O=C(O)C1CC(O)CN1 (stereo not given)"
  TGI: "> 100 µM"
- molecule: "N#CC1CC2(CCN1C(=O)c1ccccc1)OCCO2 (stereo not given)"
  TGI: "> 100 µM"
- molecule: "Cc1ccc(S(=O)(=O)N2CCCSCC2)cc1"
  TGI: "> 100 µM"
